tested on: MCF7 breast; test: NCI-60 one-dose screen, 48 h (100 = growth as untreated, 0 = no growth, -100 = all killed); details: 10 µM unless noted
The panel holds about 83,000 compounds, 20% with a hit somewhere; the sample as a whole holds those more often. Calls of active or inactive are those of the source. How the source made its calls: active means growth percent below 10; inactive means the rest.
The entries below come with measured growth values attached.
Measurement name: growth

{"Compound": "COc1ccc(-c2cc(-c3cc(-c4ccc(OC)cc4)nc(N)n3)nc(N)n2)cc1", "Observed result": "91.2% (inactive)"}
{"Compound": "CC(=O)NCc1cc(C)c(C)cc1C", "Observed result": "97.4% (inactive)"}
{"Compound": "COc1cc2c3c(n(C)c(=O)c2cc1OC)-c1cc2c(cc1C3=O)OCO2", "Observed result": "26.8% (inactive)"}
{"Compound": "Clc1ccc(-c2nnc(-c3cccc4ccccc34)o2)cc1", "Observed result": "32.2% (inactive)"}
{"Compound": "CC(=O)OCC1OC(OC2=C(CC=C(C)C)C(=O)c3ccccc3C2=O)C(OC(C)=O)C(OC(C)=O)C1OC(C)=O (centres undefined)", "Observed result": "-60.2% (active)"}
{"Compound": "Cc1ccc(/C=C2\\SC(=S)N(c3ccc(F)cc3)C2=O)o1", "Observed result": "71.1% (inactive)"}
{"Compound": "CCN(CC)CCCC(C)Nc1ccnc(/C=C/c2ccc(Cl)cc2)c1 (centres undefined)", "Observed result": "-26.6% (active)"}
{"Compound": "COC(=O)C(O)c1ccccc1 (centres undefined)", "Observed result": "99.3% (inactive)"}
{"Compound": "C#CCSc1nnnn1-c1ccc(Br)c(C)c1", "Observed result": "82.4% (inactive)"}
{"Compound": "C=CCc1cc(C(C)=O)cc(OC)c1O", "Observed result": "106% (inactive)"}
{"Compound": "C#C[C@H]1CCCCCC1O (some centres undefined)", "Observed result": "107% (inactive)"}
{"Compound": "CC(=Nc1ccccc1)C1=C(O)C(Cc2cccc(F)c2)NC1=O (centres undefined)", "Observed result": "20.9% (inactive)"}
{"Compound": "CCOC(=O)c1[nH]c(C)c(C(=O)O)c1C", "Observed result": "78.9% (inactive)"}
{"Compound": "Cc1cc(C(O)(c2ccc(Nc3ccccc3)cc2)c2ccc(Nc3ccc(S(=O)(=O)O)cc3)cc2)ccc1N (centres undefined)", "Observed result": "-3.23% (active)"}
{"Compound": "N#CCc1ccc([N+](=O)[O-])cc1", "Observed result": "89.8% (inactive)"}
{"Compound": "CCc1nc(N)nc(N)c1-c1ccc(Cl)cc1", "Observed result": "67.8% (inactive)"}
{"Compound": "Cc1ccc(/C(C#N)=C/c2ccc3c(c2)OCO3)cc1", "Observed result": "49.7% (inactive)"}
{"Compound": "O=C(Cc1nc2ccc([N+](=O)[O-])cc2nc1CC(=O)c1ccccc1)c1ccccc1", "Observed result": "30.1% (inactive)"}
{"Compound": "CCOC(=O)/C(=C/c1ccc(OC)cc1)N(CC)CC", "Observed result": "103% (inactive)"}
{"Compound": "O=C1OC(c2ccc(F)cc2)CC1CN1CCOCC1 (centres undefined)", "Observed result": "97.6% (inactive)"}
{"Compound": "O=C(Cc1ccccc1)Cc1ccccc1", "Observed result": "106% (inactive)"}
{"Compound": "O=C(Nc1ccccc1C(=O)NCC1CC1)c1cccs1", "Observed result": "106% (inactive)"}
{"Compound": "CSC[C@H](NC(=O)COc1cccc2cnccc12)C(=O)NC(Cc1ccccc1)C(O)C(=O)N1CSC[C@H]1C(=O)NC(C)(C)C (some centres undefined)", "Observed result": "114% (inactive)"}
{"Compound": "OCC1OC(OC2C(O)C(CO)OC2(CO)OC2OC(CO)C(O)C(O)C2O)C(O)C(O)C1O (centres undefined)", "Observed result": "95% (inactive)"}
{"Compound": "CC(C)CCCC(=O)O", "Observed result": "96% (inactive)"}
{"Compound": "O=[N+]([O-])c1ccccc1S(=O)c1ccccc1[N+](=O)[O-]", "Observed result": "95.2% (inactive)"}
{"Compound": "CC1(O)CCCCC1O (centres undefined)", "Observed result": "106% (inactive)"}
{"Compound": "O=C1C=C(O)C(=O)C=C1O", "Observed result": "96.5% (inactive)"}
{"Compound": "COc1cc(C(=O)N/N=C/c2cccc([N+](=O)[O-])c2)cc(OC)c1OC", "Observed result": "23.9% (inactive)"}
{"Compound": "Cc1cc2nc(CC(=O)c3cccc([N+](=O)[O-])c3)c(=O)[nH]c2cc1C", "Observed result": "74.8% (inactive)"}
{"Compound": "O=S(=O)(O)CC(O)CN1CCN(CCO)CC1 (centres undefined)", "Observed result": "96% (inactive)"}
{"Compound": "Cc1cc2nc(CO)[nH]c2cc1C", "Observed result": "120% (inactive)"}
{"Compound": "O=C(c1ccc(Cl)cc1)c1ccccc1Cl", "Observed result": "95.7% (inactive)"}
{"Compound": "CC(=O)CC(=O)N(C)C", "Observed result": "94.8% (inactive)"}

This collection of values is drawn from PubChem BioAssay (NCI).
